# procedureSummary: Intrinsic clearance in male rat hepatocytes
# Type: ADME, cell-based, Hepatocyte
# conditionSet: read-out: CLH
property: CLint scaled (mL/min/kg)

P. NC(=O)c1cnn(-c2ccc(NCC3(c4ncccc4F)CCC3)nn2)c1
Q. NC(=O)c1cnn(-c2ccc(NC[C@]3(c4ncccc4F)C[C@H](F)C3)nn2)c1
R. NC(=O)c1ccn(-c2cnc(NC[C@]3(c4ncccc4F)C[C@H](F)C3)nc2)c1
S. NC(=O)c1cccc(-c2cnc(NC[C@]3(c4ncccc4F)C[C@H](F)C3)nc2)c1
T. NC(=O)c1ccn(-c2ccc(NCC3(c4ncccc4F)CCC3)nn2)c1
Arrange the 5 entries by CLint scaled so the values rise. Dear reader, please state the labels in the requested order. S, R, Q, T, P

====

# procedureSummary: Intrinsic clearance in female rat hepatocytes
# Assay type: ADME, cell-based, Hepatocyte
# conditionSet: read-out: CLH
property: CLint scaled (mL/min/kg)
The reply should be a number in mL/min/kg, with the unit left off.

Record request: CLint scaled value, item NC(=O)c1ccn(-c2cnc(NC[C@]3(c4ncccc4F)C[C@H](F)C3)nc2)c1 217

====

# procedureSummary: Plasma protein binding in monkey assessed as unbound fraction
# Format: ADME, cell-free, Macaca mulatta
# conditionSet: rhesus monkey
property: fraction unbound
Keep the answer to the number alone.

Record request: fraction unbound value, item NC(=O)c1ccn(-c2cnc(NC[C@]3(c4ncccc4F)C[C@H](F)C3)nc2)c1 0.49

====

# procedureSummary: Plasma protein binding in male rat assessed as unbound fraction
# Format: ADME, cell-free
property: fraction unbound

Observe how each entry below is paired with its result.
NC(=O)c1cnn(-c2ccc(NCC3(c4ncccc4F)CCC3)nn2)c1 :: 0.42
NC(=O)c1ccn(-c2cnc(NC[C@]3(c4ncccc4F)C[C@H](F)C3)nc2)c1 :: 0.5
CNC(=O)c1cccc(-c2cnc(NC[C@]3(c4ncccc4F)C[C@H](F)C3)nc2)c1 :: 0.27

A. NC(=O)c1ccn(-c2ccc(NCC3(c4ncccc4F)CCC3)nn2)c1
B. NC(=O)c1cnn(-c2ccc(NC[C@]3(c4ncccc4F)C[C@H](F)C3)nn2)c1
C. C#Cc1cnc2nc(O)n(C(CC)CC)c2n1
D. NC(=O)c1cccc(-c2cnc(NC[C@]3(c4ncccc4F)C[C@H](F)C3)nc2)c1
Put the compounds in ascending order of fraction unbound. Dear reader, please state the labels in the requested order. C, D, A, B
(C: 0.05, D: 0.15, A: 0.35, B: 0.55)

====

# experimentalSystem: Nuclear receptor subfamily 1 group I member 2 (Homo sapiens)
# Sequence (O75469 whole entry): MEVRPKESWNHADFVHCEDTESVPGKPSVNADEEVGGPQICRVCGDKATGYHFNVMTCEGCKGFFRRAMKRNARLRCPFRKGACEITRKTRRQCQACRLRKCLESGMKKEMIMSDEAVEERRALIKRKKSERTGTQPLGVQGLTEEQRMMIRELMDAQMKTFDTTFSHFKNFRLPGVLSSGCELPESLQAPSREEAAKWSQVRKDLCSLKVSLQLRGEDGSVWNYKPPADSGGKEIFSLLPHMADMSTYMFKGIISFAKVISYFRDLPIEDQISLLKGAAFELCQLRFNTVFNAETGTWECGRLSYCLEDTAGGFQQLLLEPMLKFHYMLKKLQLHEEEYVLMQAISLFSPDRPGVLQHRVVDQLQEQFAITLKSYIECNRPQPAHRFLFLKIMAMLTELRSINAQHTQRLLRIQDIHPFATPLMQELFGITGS
# procedureSummary: Transactivation of human PXR transfected in DPX2 cells assessed as CYP3A4 induction at 10 uM by luciferase reporter gene assay
# Format: ADME, cell-based
# conditionSet: dpx2, 10 µM
property: Activity (%)

Observe how each entry below is paired with its result.
CNC(=O)c1cccc(-c2cnc(NC[C@]3(c4ncccc4F)C[C@H](F)C3)nc2)c1 :: 31
NC(=O)c1ccn(-c2cnc(NC[C@]3(c4ncccc4F)C[C@H](F)C3)nc2)c1 :: 18

I. NC(=O)c1cccc(-c2cnc(NC[C@]3(c4ncccc4F)C[C@H](F)C3)nc2)c1
II. NC(=O)c1cnn(-c2ccc(NC[C@]3(c4ncccc4F)C[C@H](F)C3)nn2)c1
III. NC(=O)c1ccn(-c2ccc(NCC3(c4ncccc4F)CCC3)nn2)c1
Put the molecules in ascending order of Activity. Dear reader, please state the labels in the requested order. II, III, I

====

# procedureSummary: Clearance in male Sprague-Dawley rat at 3 mg/kg, po administered as single dose measured up to 24 hrs by HPLC analysis
# Format: ADME, organism-based
# conditionSet: in vivo
property: CL/F (mL/min/kg)

NC(=O)c1cccc(-c2cnc(NC[C@]3(c4ncccc4F)C[C@H](F)C3)nc2)c1 :: 59
CNC(=O)c1cccc(-c2cnc(NC[C@]3(c4ncccc4F)C[C@H](F)C3)nc2)c1 :: 52
NC(=O)c1ccn(-c2cnc(NC[C@]3(c4ncccc4F)C[C@H](F)C3)nc2)c1 :: 74

====

# procedureSummary: Oral bioavailability in male Sprague-Dawley rat at 3 mg/kg administered as single dose measured up to 24 hrs by HPLC analysis
# Type: ADME, organism-based
# conditionSet: in vivo
property: bioavailability (%)
The reply should be a number in %, with the unit left off.

Record request: bioavailability value, item NC(=O)c1cccc(-c2cnc(NC[C@]3(c4ncccc4F)C[C@H](F)C3)nc2)c1 21

====

# procedureSummary: Drug distribution in Sprague-Dawley rat plasma to blood ratio at 100 mg/kg, po by HPLC analysis
# Assay type: ADME, organism-based
# conditionSet: in vivo
property: Ratio

Observe how each entry below is paired with its result.
CNC(=O)c1cccc(-c2cnc(NC[C@]3(c4ncccc4F)C[C@H](F)C3)nc2)c1 :: 1.15
C#Cc1cnc2nc(O)n(C(CC)CC)c2n1 :: 1.62

1. NC(=O)c1ccn(-c2cnc(NC[C@]3(c4ncccc4F)C[C@H](F)C3)nc2)c1
2. NC(=O)c1cccc(-c2cnc(NC[C@]3(c4ncccc4F)C[C@H](F)C3)nc2)c1
Would you kindly point out which of 1 and 2 has the smaller Ratio figure? Selection: enter the item's label. 1
(1: 1, 2: 1.85)

====

# Tested on: Psoas muscle
# procedureSummary: Activation of fast twitch skeletal muscle in rabbit psoas muscle myofibrils by measuring increase in myofibril ATPase activity at 25% calcium concentration
# Type: functional
# conditionSet: Oryctolagus cuniculus
property: EC40 (µM)
The reply should be a number in µM, with the unit left off.

Observe how each entry below is paired with its result.
CC(C)(CNc1ccc(-c2cccc(C(N)=O)c2)cn1)c1ccc(F)cc1 :: 0.5
CC(C)(CNc1nsc(-c2cccc(C(N)=O)c2)n1)c1ccc(F)cc1 :: 0.5
NC(=O)c1cnc(-c2ccc(NCC3(c4ncccc4F)CCC3)nn2)s1 :: 0.1
CN(C)C(=O)c1cnn(-c2ccc(NCC3(c4ncccc4F)CCC3)nn2)c1 :: 20.2
COCCCc1nsc(NCC(C)(C)c2ccc(F)cc2)n1 :: 2.5

Record request: EC40 value, item CC(C)(CNc1nc(Cc2ccc(F)cc2)ns1)c1ccc(Cl)cc1 0.6

Record request: EC40 value, item CNC(=O)c1cccc(-c2cnc(NC[C@]3(c4ncccc4F)C[C@H](F)C3)nc2)c1 0.9

Record request: EC40 value, item CC(C)(CNc1ccc(-c2cccc(C(N)=O)c2)nn1)c1ccc(F)cc1 1.2

Record request: EC40 value, item CC(C)(CNc1ncns1)c1ccc(F)cc1 8.4

Record request: EC40 value, item Fc1ccc(CCNc2nc(Cc3ccc(F)cc3)ns2)cc1 9.9

====

# procedureSummary: Oral bioavailability in male Sprague-Dawley rat at 1 mg/kg administered as single dose measured up to 24 hrs by HPLC analysis
# Type: ADME, organism-based
# conditionSet: in vivo
property: bioavailability (%)
The reply should be a number in %, with the unit left off.

Record request: bioavailability value, item NC(=O)c1cnn(-c2ccc(NCC3(c4ncccc4F)CCC3)nn2)c1 12

====

# procedureSummary: Clearance in cynomolgus monkey at 3 mg/kg, po administered as single dose measured up to 24 hrs by HPLC analysis
# Assay type: ADME, organism-based, Macaca fascicularis
# conditionSet: in vivo
property: CL/F (mL/min/kg)
The reply should be a number in mL/min/kg, with the unit left off.

Record request: CL/F value, item NC(=O)c1ccn(-c2cnc(NC[C@]3(c4ncccc4F)C[C@H](F)C3)nc2)c1 [RELDESEMTIV] 13

====

# procedureSummary: Metabolic stability in dog liver microsomes assessed as intrinsic clearance measured after 90 mins by HPLC/MS/MS analysis
# Format: ADME, Canis lupus familiaris, Microsome
# conditionSet: read-out: CLH
property: CLint scaled (mL/min/kg)
The reply should be a number in mL/min/kg, with the unit left off.

Record request: CLint scaled value, item NC(=O)c1ccn(-c2cnc(NC[C@]3(c4ncccc4F)C[C@H](F)C3)nc2)c1 [RELDESEMTIV] 11

====

# procedureSummary: Oral bioavailability in cynomolgus monkey at 3 mg/kg administered as single dose measured up to 24 hrs by HPLC analysis
# Type: ADME, organism-based, Macaca fascicularis
# conditionSet: in vivo
property: bioavailability (%)
The reply should be a number in %, with the unit left off.

Record request: bioavailability value, item NC(=O)c1ccn(-c2cnc(NC[C@]3(c4ncccc4F)C[C@H](F)C3)nc2)c1 26

====

# procedureSummary: Clearance in female Sprague-Dawley rat at 3 mg/kg, po administered as single dose measured up to 24 hrs by HPLC analysis
# Type: ADME, organism-based
# conditionSet: in vivo
property: CL/F (mL/min/kg)
The reply should be a number in mL/min/kg, with the unit left off.

Record request: CL/F value, item NC(=O)c1ccn(-c2cnc(NC[C@]3(c4ncccc4F)C[C@H](F)C3)nc2)c1 24

====

# procedureSummary: Thermodynamic solubility of the compound
# Assay type: physicochemical
# conditionSet: read-out: Therm_solubility
Below: a set of entries, each annotated with reported solubility thermodynamic.

CC(C)(CNc1nc(-c2ccc(C(N)=O)cc2)ns1)c1ccc(F)cc1 :: < 27 µM
CC(CNc1nc(Cc2ccc(F)cc2)ns1)c1ccc(Cl)cc1 (centres undefined) :: < 27 µM
CC(C)(CNc1ccc(-c2cccc(C(N)=O)c2)nn1)c1ccc(F)cc1 :: 86 µM

Record request: solubility thermodynamic value, item CC(C)(CNc1nc(-c2cccc(C(N)=O)c2)ns1)c1ccc(F)cc1 < 27 µM
